biological target: LNX1_1, Q8TBB1; experiment: holdup assay; set-up: key: below the threshold = too weak to quantify, mostly under pKd 3.1 to 4; details: plain residues with an end cap or a label only (N-terminal biotin on a linker: ado-ado)
Sequence (Q8TBB1 261-371): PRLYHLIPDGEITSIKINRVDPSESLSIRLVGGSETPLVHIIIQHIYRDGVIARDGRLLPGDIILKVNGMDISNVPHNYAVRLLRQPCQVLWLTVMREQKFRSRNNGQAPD
PARAMETER_MEASURED: pKd

> print(dat)
                       binder         result.value
1  QMNQTLPVQV [EPHB3, P54753]  below the threshold
2  VRNLPESEEL [MYOZ3, Q8TDC0]  below the threshold
3  RKPKPSSSCC [RAB9A, P51151]  below the threshold
